Target: HLA-A*02:01 (Homo sapiens, UniProt P04439, D140Y/D185E/D98H/E176V/E277Q/G131W/G231S/I119V/I121R/I166T/I218V/L300P/L318F/N151K/N90K/P208A/P217A/Q86G/Q94H/R138H/R169H/T345S)
Experiment: MHC binding assay: UV-ligand exchange and β2m ELISA (peptide exchange yield, Table 7)
Settings: binding of HLA-class I restricted peptides to HLA-A*02:01, UV-ligand exchange
Excerpt: Candidate peptides for T cell based therapies according to the present invention were further tested for their MHC binding capacity (affinity). The individual peptide-MHC complexes were produced by UV-ligand exchange, where a UV-sensitive peptide is cleaved upon UV-irradiation, and exchanged with the peptide of interest as analyzed. Only peptide candidates that can effectively bind and stabilize the peptide-receptive MHC molecules prevent dissociation of the MHC complexes. […]
parameter measured: Peptide exchange (MHC class I binding score, peptide exchange yield)

# count of solved cases: 4
# substance, observed
records = [
    ("23 (ALLSPLSLA; listed as Homo sapiens) [compound 23]", "+++ (≥50% = +++)"),
    ("85 (KLLDKPEQFL; listed as Homo sapiens) [compound 85]", "++ (≥20% = ++)"),
    ("134 (SLYKSFLQL; listed as Homo sapiens) [compound 134]", "++ (≥20% = ++)"),
    ("109 (ILGSFELQL; listed as Homo sapiens) [compound 109]", "+++ (≥50% = +++)"),
]

List the reported Peptide exchange (MHC class I binding score, peptide exchange yield) of each substance below.
1. 111 (AQLEGKLVSI; listed as Homo sapiens) [compound 111]
2. 163 (GLEERLYTA; listed as Homo sapiens) [compound 163]
3. 31 (GLLETTGLLAT; listed as Homo sapiens) [compound 31]
4. 128 (SILTNISEV; listed as Homo sapiens) [compound 128]

Response line:
+++ (≥50% = +++)
++ (≥20% = ++)
+++ (≥50% = +++)
++ (≥20% = ++)

Give Peptide exchange (MHC class I binding score, peptide exchange yield) for each of the items listed below.
1. 57 (TLYPGRFDYV; listed as Homo sapiens) [compound 57]
2. 14 (YTFSGDVQL; listed as Homo sapiens) [compound 14]
3. 149 (NMADGQLHQV; listed as Homo sapiens) [compound 149]

Response line:
["++ (≥20% = ++)", "+++ (≥50% = +++)", "++ (≥20% = ++)"]

Count: 2. Required value per item: Peptide exchange (MHC class I binding score, peptide exchange yield).
1. 259 (GPGIFPPPPPQP; listed as Homo sapiens) [compound 259]
2. 182 (GLQDGFQITV; listed as Homo sapiens) [compound 182]

Response line:
1: + (≥10% = +); 2: +++ (≥50% = +++)

Go through the items and report each one's Peptide exchange (MHC class I binding score, peptide exchange yield).
1. 160 (TLQEWLTEV; listed as Homo sapiens) [compound 160]
2. 27 (GLLGKVTSV; listed as Homo sapiens) [compound 27]
3. 248 (VLMQDSRLYL; listed as Homo sapiens) [compound 248]
4. 246 (ALAGIVTNV; listed as Homo sapiens) [compound 246]
5. 108 (FIANLPPELKA; listed as Homo sapiens) [compound 108]
6. 241 (KQFEGTVEI; listed as Homo sapiens) [compound 241]
7. 227 (SEMEELPSV; listed as Homo sapiens) [compound 227]
8. 203 (FLFVDPELV; listed as Homo sapiens) [compound 203]

Response line:
+++ (≥50% = +++)
+++ (≥50% = +++)
+++ (≥50% = +++)
+++ (≥50% = +++)
+++ (≥50% = +++)
+++ (≥50% = +++)
+ (≥10% = +)
++ (≥20% = ++)

Would you mind listing Peptide exchange (MHC class I binding score, peptide exchange yield) for each of the following substances?
1. 220 (ALSELERVL; listed as Homo sapiens) [compound 220]
2. 155 (TLDSYLKAV; listed as Homo sapiens) [compound 155]
3. 110 (QIQGQVSEV; listed as Homo sapiens) [compound 110]
4. 275 (AVPPPPSSV; listed as Homo sapiens) [compound 275]
5. 83 (GLLENSPHL; listed as Homo sapiens) [compound 83]
6. 98 (FVQEKIPEL; listed as Homo sapiens) [compound 98]
7. 262 (LLLEAVWHL; listed as Homo sapiens) [compound 262]

Response line:
1: +++ (≥50% = +++); 2: ++ (≥20% = ++); 3: ++ (≥20% = ++); 4: ++ (≥20% = ++); 5: ++ (≥20% = ++); 6: +++ (≥50% = +++); 7: +++ (≥50% = +++)

I would be grateful if you could provide Peptide exchange (MHC class I binding score, peptide exchange yield) for each of the following entries.
1. 249 (YLYQILQGI; listed as Homo sapiens) [compound 249]
2. 42 (KQMSISTGL; listed as Homo sapiens) [compound 42]

Response line:
["+++ (≥50% = +++)", "++ (≥20% = ++)"]

# batch: return Peptide exchange (MHC class I binding score, peptide exchange yield) for each of the 2 substances below
1. 141 (NIDINNNEL; listed as Homo sapiens) [compound 141]
2. 37 (QIVELIEKI; listed as Homo sapiens) [compound 37]

Response line:
1: ++ (≥20% = ++); 2: ++ (≥20% = ++)

====

target: HLA-A*02:01 (Homo sapiens, UniProt P04439, D140Y/D185E/D98H/E176V/E277Q/G131W/G231S/I119V/I121R/I166T/I218V/L300P/L318F/N151K/N90K/P208A/P217A/Q86G/Q94H/R138H/R169H/T345S); assay: MHC binding assay: UV-ligand exchange and β2m ELISA (peptide exchange yield, Table 7); conditions: binding of HLA-class I restricted peptides to HLA-A*02:01, UV-ligand exchange
parameter measured: Peptide exchange (MHC class I binding score, peptide exchange yield)

Would you please look over these solved cases?
# substance, observed
rows = [
    ("159 (QLGPVPVTI; listed as Homo sapiens) [compound 159]", "+++ (≥50% = +++)"),
    ("90 (AILNVDEKNQV; listed as Homo sapiens) [compound 90]", "++ (≥20% = ++)"),
    ("1 (KLQEKIQEL; listed as Homo sapiens) [compound 1]", "++++ (≥75% = ++++)"),
    ("68 (QLMNLIRSV; listed as Homo sapiens) [compound 68]", "+++ (≥50% = +++)"),
]

Record Peptide exchange (MHC class I binding score, peptide exchange yield) per entry; entries follow.
1. 164 (MLIIRVPSV; listed as Homo sapiens) [compound 164]
2. 206 (GLDAFRIFL; listed as Homo sapiens) [compound 206]
3. 252 (SLMEKNQSL; listed as Homo sapiens) [compound 252]
4. 100 (ALQSFEFRV; listed as Homo sapiens) [compound 100]
5. 179 (TLGEIIKGV; listed as Homo sapiens) [compound 179]

Response line:
1. +++ (≥50% = +++)
2. ++++ (≥75% = ++++)
3. ++ (≥20% = ++)
4. +++ (≥50% = +++)
5. +++ (≥50% = +++)

====

biological target: HLA-A*02:01 (Homo sapiens, UniProt P04439, D140Y/D185E/D98H/E176V/E277Q/G131W/G231S/I119V/I121R/I166T/I218V/L300P/L318F/N151K/N90K/P208A/P217A/Q86G/Q94H/R138H/R169H/T345S); assay: MHC binding assay: UV-ligand exchange and β2m ELISA (peptide exchange yield, Table 7); conditions: binding of HLA-class I restricted peptides to HLA-A*02:01, UV-ligand exchange
parameter measured: Peptide exchange (MHC class I binding score, peptide exchange yield)

# substance, observed
rows = [
    ("13 (RLHDENILL; listed as Homo sapiens) [compound 13]", "+++ (≥50% = +++)"),
    ("219 (GVVPTIQKV; listed as Homo sapiens) [compound 219]", "++ (≥20% = ++)"),
    ("247 (NLLIDDKGTIKL; listed as Homo sapiens) [compound 247]", "++ (≥20% = ++)"),
    ("142 (LLDAAHASI; listed as Homo sapiens) [compound 142]", "++ (≥20% = ++)"),
]

Please look at the items below and tell me Peptide exchange (MHC class I binding score, peptide exchange yield) for each one, in order.
1. 273 (SLNKQIETV; listed as Homo sapiens) [compound 273]
2. 270 (TLLTFFHEL; listed as Homo sapiens) [compound 270]

Response line:
++ (≥20% = ++)
+++ (≥50% = +++)

====

molecular target: HLA-A*02:01 (Homo sapiens, UniProt P04439, D140Y/D185E/D98H/E176V/E277Q/G131W/G231S/I119V/I121R/I166T/I218V/L300P/L318F/N151K/N90K/P208A/P217A/Q86G/Q94H/R138H/R169H/T345S); experiment: MHC binding assay: UV-ligand exchange and β2m ELISA (peptide exchange yield, Table 7); settings: binding of HLA-class I restricted peptides to HLA-A*02:01, UV-ligand exchange
parameter measured: Peptide exchange (MHC class I binding score, peptide exchange yield)

# substance, observed
records = [
    ("251 (LLWGNLPEI; listed as Homo sapiens) [compound 251]", "+++ (≥50% = +++)"),
    ("54 (YLVPGLVAA; listed as Homo sapiens) [compound 54]", "+++ (≥50% = +++)"),
    ("103 (YLADTVQKL; listed as Homo sapiens) [compound 103]", "++ (≥20% = ++)"),
    ("72 (VLSTRVTNV; listed as Homo sapiens) [compound 72]", "++ (≥20% = ++)"),
    ("181 (LLWAPTAQA; listed as Homo sapiens) [compound 181]", "+++ (≥50% = +++)"),
]

Hey, can you go through the list below and give me Peptide exchange (MHC class I binding score, peptide exchange yield) for every item?
1. 286 (FLTEMVHFI; listed as Homo sapiens) [compound 286]
2. 222 (LLTGVFAQL; listed as Homo sapiens) [compound 222]
3. 170 (FIAAVVEKV; listed as Homo sapiens) [compound 170]
4. 242 (KLQEEIPVL; listed as Homo sapiens) [compound 242]
5. 266 (FLLDKPQDL; listed as Homo sapiens) [compound 266]
6. 212 (MTLSEIHAV; listed as Homo sapiens) [compound 212]
7. 190 (SLSTELFKV; listed as Homo sapiens) [compound 190]

Response line:
1. +++ (≥50% = +++)
2. ++ (≥20% = ++)
3. ++ (≥20% = ++)
4. +++ (≥50% = +++)
5. ++ (≥20% = ++)
6. ++ (≥20% = ++)
7. +++ (≥50% = +++)

Batch request: Peptide exchange (MHC class I binding score, peptide exchange yield) per item, same order as input.
1. 258 (QLVQRVASV; listed as Homo sapiens) [compound 258]
2. 67 (FLIENLLAA; listed as Homo sapiens) [compound 67]
3. 143 (MLWESIMRV; listed as Homo sapiens) [compound 143]
4. 61 (ALYPKEITL; listed as Homo sapiens) [compound 61]
5. 19 (KVFELDLVTL; listed as Homo sapiens) [compound 19]

Response line:
["++ (≥20% = ++)", "+++ (≥50% = +++)", "+++ (≥50% = +++)", "+++ (≥50% = +++)", "++ (≥20% = ++)"]

# batch size: 3; output Peptide exchange (MHC class I binding score, peptide exchange yield) per entry
1. 99 (TLFGIQLTEA; listed as Homo sapiens) [compound 99]
2. 267 (YLLDMPLWYL; listed as Homo sapiens) [compound 267]
3. 285 (MLLDTVQKV; listed as Homo sapiens) [compound 285]

Response line:
1. +++ (≥50% = +++)
2. +++ (≥50% = +++)
3. +++ (≥50% = +++)
